assay: self-splicing fitness, log relative to wild type (ln ratio); higher = more splicing; Tetrahymena group I intron in knt gene, E. coli kanamycin selection, DiMSum; sequences stand for … in CUCUCU…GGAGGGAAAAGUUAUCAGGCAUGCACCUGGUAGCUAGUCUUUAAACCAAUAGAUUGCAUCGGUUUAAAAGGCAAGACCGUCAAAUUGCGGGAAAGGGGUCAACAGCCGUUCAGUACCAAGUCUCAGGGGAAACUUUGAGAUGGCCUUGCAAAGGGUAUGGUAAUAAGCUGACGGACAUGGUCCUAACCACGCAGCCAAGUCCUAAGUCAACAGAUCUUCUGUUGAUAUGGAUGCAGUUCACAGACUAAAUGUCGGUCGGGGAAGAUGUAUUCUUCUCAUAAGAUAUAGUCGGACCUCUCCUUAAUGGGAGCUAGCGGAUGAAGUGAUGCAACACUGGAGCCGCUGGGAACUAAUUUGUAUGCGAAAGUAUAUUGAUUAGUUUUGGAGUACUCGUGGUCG; conditions: 30 °C;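 also: selection with 25 µg/mL kanamycin versus none on LB agar overnight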
What self-splicing fitness (ln) was measured for each of the following?
Numbers only.

input-sequence | self-splicing fitness (ln)
AUCAAGCAAUAUUACGAUGU | -0.836
GAAAAGCAAUAUUACGCUGA | -1.91
GGGGAGCAAUAUUACGUCGA | 0.294
UUGGAGCAAUAUUACGGUCC | -3.7
UCUGAGCAAUAUUACGCAAU | -2.13
UCUGAGCAAUAUUACGUGUA | -2.67

Could I get self-splicing fitness (ln) for every one of these entries?
1. UUUAAGCAAUAUUACGCUCU
2. CCGGAGCAAUAUUACGGGAA

[-1.26, -2.09]

----------
assay: self-splicing fitness, log relative to wild type (ln ratio); higher = more splicing; Tetrahymena group I intron in knt gene, E. coli kanamycin selection, DiMSum; sequences stand for … in CUCUCU…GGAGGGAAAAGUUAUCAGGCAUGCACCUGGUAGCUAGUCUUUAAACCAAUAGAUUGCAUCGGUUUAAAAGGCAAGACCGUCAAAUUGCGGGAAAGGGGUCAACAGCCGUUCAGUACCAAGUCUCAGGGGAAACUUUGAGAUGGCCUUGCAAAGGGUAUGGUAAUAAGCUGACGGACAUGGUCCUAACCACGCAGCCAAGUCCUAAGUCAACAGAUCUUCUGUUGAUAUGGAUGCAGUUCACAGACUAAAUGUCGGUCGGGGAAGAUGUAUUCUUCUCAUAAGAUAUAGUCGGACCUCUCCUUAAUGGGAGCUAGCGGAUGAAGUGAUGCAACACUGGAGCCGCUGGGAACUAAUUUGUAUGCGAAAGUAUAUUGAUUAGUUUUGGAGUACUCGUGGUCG; conditions: 37 °C
metric: self-splicing fitness (ln)
One number for each entry.

Solved entries:
input-sequence | self-splicing fitness (ln)
UGAAAGCAAUAUUACGACCU | 0.188
CUAAAGCAAUAUUACGGUCU | -3.69
CACAAGCAAUAUUACGGCGC | -1.07
GAACAGCAAUAUUACGAGCA | -0.521
ACUAAGCAAUAUUACGAUGC | -0.792
UUGCAGCAAUAUUACGCACU | -1.15
AGAGAGCAAUAUUACGGCGA | -1.82
CCGUAGCAAUAUUACGCGUG | -1.22
UUGGAGCAAUAUUACGCCCA | -0.932
GGACAGCAAUAUUACGUCAG | -0.434

Could I get self-splicing fitness (ln) for every one of these entries?
1. CACUAGCAAUAUUACGAAUU
2. CCCAAGCAAUAUUACGUUAC

-2.77
-2.37

Could I get self-splicing fitness (ln) for every one of these entries?
1. CACGAGCAAUAUUACGGAGG
2. AAUCAGCAAUAUUACGGGUU
3. CGGCAGCAAUAUUACGGGCU
4. CCAUAGCAAUAUUACGGGAU

1. -2.75
2. -2.02
3. -2.16
4. -2.86

----------
assay: self-splicing fitness, log relative to wild type (ln ratio); higher = more splicing; Tetrahymena group I intron in knt gene, E. coli kanamycin selection, DiMSum; sequences stand for … in CUCUCU…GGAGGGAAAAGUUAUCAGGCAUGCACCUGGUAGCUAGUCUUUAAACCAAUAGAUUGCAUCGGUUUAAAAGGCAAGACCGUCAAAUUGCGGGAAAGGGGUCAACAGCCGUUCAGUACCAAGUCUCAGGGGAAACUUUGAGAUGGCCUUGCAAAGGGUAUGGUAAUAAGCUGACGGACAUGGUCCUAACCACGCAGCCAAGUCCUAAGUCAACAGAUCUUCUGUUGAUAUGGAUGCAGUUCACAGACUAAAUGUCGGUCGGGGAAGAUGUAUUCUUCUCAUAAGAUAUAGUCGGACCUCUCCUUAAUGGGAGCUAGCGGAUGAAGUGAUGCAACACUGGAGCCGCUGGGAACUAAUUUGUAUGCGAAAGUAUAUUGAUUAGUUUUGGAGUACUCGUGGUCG; settings: 37 °C
Classify as follows. Reported self-splicing fitness (ln) greater than or equal to -2: Condition met. Reported self-splicing fitness (ln) below: Condition not met.

input-sequence | class
UUCUAGCAAUAUUACGGGUA | Condition met
GGAGAGCAAUAUUACGUGUU | Condition met
GCGUAGCAAUAUUACGUCCU | Condition met
CCGCAGCAAUAUUACGGUAC | Condition not met
UUGUAGCAAUAUUACGACAC | Condition met

Quick check, self-splicing fitness (ln) >= -2? UCUGAGCAAUAUUACGGUUC
Condition not met

Quick check, self-splicing fitness (ln) >= -2? AUCAAGCAAUAUUACGGCAG
Condition met

Quick check, self-splicing fitness (ln) >= -2? UACCAGCAAUAUUACGUAAU
Condition met

Quick check, self-splicing fitness (ln) >= -2? GAUCAGCAAUAUUACGCCCG
Condition met

----------
assay: self-splicing fitness, log relative to wild type (ln ratio); higher = more splicing; Tetrahymena group I intron in knt gene, E. coli kanamycin selection, DiMSum; sequences stand for … in CUCUCU…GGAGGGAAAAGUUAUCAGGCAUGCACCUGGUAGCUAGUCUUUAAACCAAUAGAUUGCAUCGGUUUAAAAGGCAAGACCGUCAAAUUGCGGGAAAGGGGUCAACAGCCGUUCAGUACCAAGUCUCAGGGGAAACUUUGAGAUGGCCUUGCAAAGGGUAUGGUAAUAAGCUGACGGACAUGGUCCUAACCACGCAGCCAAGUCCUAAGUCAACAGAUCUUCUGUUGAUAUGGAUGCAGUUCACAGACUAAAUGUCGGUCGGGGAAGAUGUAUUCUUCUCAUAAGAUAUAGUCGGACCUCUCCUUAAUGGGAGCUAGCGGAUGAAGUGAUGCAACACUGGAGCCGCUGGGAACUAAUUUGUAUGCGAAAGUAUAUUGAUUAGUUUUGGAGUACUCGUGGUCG; conditions: 37 °C
metric: self-splicing fitness (ln)
One number for each entry.

Solved entries:
input-sequence | self-splicing fitness (ln)
CGCGAGCAAUAUUACGUUAA | -4.09
UUAUAGCAAUAUUACGCAGG | -0.791
CCUAAGCAAUAUUACGUACG | -0.851
AACGAGCAAUAUUACGACUC | -0.414
ACUUAGCAAUAUUACGGUCG | -1.35
AAGCAGCAAUAUUACGCUCC | -0.511
UCGUAGCAAUAUUACGAUAG | -3.12
AGAUAGCAAUAUUACGGGCA | 0.0415

Could I get self-splicing fitness (ln) for every one of these entries?
1. CGACAGCAAUAUUACGAUUU
2. CAGCAGCAAUAUUACGAUGC
3. ACGAAGCAAUAUUACGACAC
4. AAAAAGCAAUAUUACGGCGC
5. GGUGAGCAAUAUUACGAUCC
6. CGGUAGCAAUAUUACGGGAC
7. ACGAAGCAAUAUUACGAUGU

-1.26
-2.89
-0.952
0.559
-0.766
-4.61
-2.74

What value of self-splicing fitness (ln) has been reported for the following sequence? GUACAGCAAUAUUACGUUAC
-2.27

----------
What self-splicing fitness (ln) was measured for each of the following?
experiment: self-splicing fitness, log relative to wild type (ln ratio); higher = more splicing; Tetrahymena group I intron in knt gene, E. coli kanamycin selection, DiMSum; sequences stand for … in CUCUCU…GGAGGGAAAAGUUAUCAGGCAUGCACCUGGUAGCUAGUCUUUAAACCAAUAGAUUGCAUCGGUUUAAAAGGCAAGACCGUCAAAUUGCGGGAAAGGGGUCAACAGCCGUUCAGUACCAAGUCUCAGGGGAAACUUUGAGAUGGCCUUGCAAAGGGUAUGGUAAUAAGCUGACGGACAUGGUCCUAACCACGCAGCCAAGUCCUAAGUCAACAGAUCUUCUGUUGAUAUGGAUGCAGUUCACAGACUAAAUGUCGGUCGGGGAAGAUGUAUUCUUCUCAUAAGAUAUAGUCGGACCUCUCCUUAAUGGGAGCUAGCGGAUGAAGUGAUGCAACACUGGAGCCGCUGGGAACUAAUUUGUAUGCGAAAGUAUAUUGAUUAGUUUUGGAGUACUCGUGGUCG; details: 30 °C
One number for each entry.

input-sequence | metric | val
GCCAAGCAAUAUUACGAGGG | self-splicing fitness (ln) | -2.8
GCUCAGCAAUAUUACGGAGG | self-splicing fitness (ln) | -1.44
CGCCAGCAAUAUUACGAUCC | self-splicing fitness (ln) | -3.12
CUUUAGCAAUAUUACGCGGA | self-splicing fitness (ln) | -2.48
CAAAAGCAAUAUUACGCGCC | self-splicing fitness (ln) | -2.04
CUCGAGCAAUAUUACGCUCA | self-splicing fitness (ln) | -1.96

Could I get self-splicing fitness (ln) for every one of these entries?
1. CGAUAGCAAUAUUACGAGUG
2. AGAAAGCAAUAUUACGCAUA
3. GACGAGCAAUAUUACGGCUA
4. ACGAAGCAAUAUUACGAUCG
5. UCGGAGCAAUAUUACGGCGG

[-0.68, -2.44, -0.73, -0.102, -1.42]

Could I get self-splicing fitness (ln) for every one of these entries?
1. UUUCAGCAAUAUUACGGACG
2. AUAAAGCAAUAUUACGGCUG
3. GGGAAGCAAUAUUACGUUGG
4. AGCUAGCAAUAUUACGGCGG
5. GUGAAGCAAUAUUACGAGAC
6. GACUAGCAAUAUUACGUAUA
7. CGGCAGCAAUAUUACGCCGG
8. AAGAAGCAAUAUUACGAACU

-0.348
0.334
-3.77
-1.13
-2.62
-1.01
-2.15
-0.3

Could I get self-splicing fitness (ln) for every one of these entries?
1. CUAGAGCAAUAUUACGGUGC
2. CGGGAGCAAUAUUACGACCA
3. UGGGAGCAAUAUUACGUUCU
4. AAUUAGCAAUAUUACGCCAU

[-3.31, -1.08, -2.95, -2.49]

Could I get self-splicing fitness (ln) for every one of these entries?
1. GACCAGCAAUAUUACGUGCU
2. GUAGAGCAAUAUUACGUACA
3. AGGUAGCAAUAUUACGUAAC
4. GGGGAGCAAUAUUACGACCA

1. -2.85
2. -0.971
3. -2.09
4. -0.254

Could I get self-splicing fitness (ln) for every one of these entries?
1. AGUGAGCAAUAUUACGUUGA
2. UGUCAGCAAUAUUACGCGUU
3. CAGCAGCAAUAUUACGGCUC
4. CCUCAGCAAUAUUACGGGUG
5. CAUUAGCAAUAUUACGCCUC
6. UCAGAGCAAUAUUACGGCGU

1: -2.51; 2: -1.16; 3: -0.127; 4: -2.04; 5: -1.17; 6: -3.42

What value of self-splicing fitness (ln) has been reported for the following sequence? GAGAAGCAAUAUUACGACCA
-1.12
